# SUBJECT OF TEST: PDE10A2 (Homo sapiens)
# Construct: residues serine 449 to aspartate 789; His6 (H6) with Gateway linker and thrombin cleavage site (N, cleaved yes)
# PROTOCOL DESCRIPTION: PDE10A2 Scintillation Proximity Assay (SPA), [3H]-cGMP hydrolysis
# TEST CONDITIONS: catalytic domain of human PDE10A2 (S449-D789), 0.25 nM enzyme, 50 nM cGMP + 50 nM [3H]-cGMP, 30 minutes at room temperature; read-out: PDE10A2 inhibition IC50
Output schema: class label derived from IC50. Mapping: class A (below 70 nM), class B (70 nM to below 500 nM), class C (500 nM or more)

{"SMILES NOTATION": "O=c1ccn(-c2cncc(Cl)c2)nc1-c1ccnn1-c1cccc(Cl)c1", "CLASS NAME": "class A"}
{"SMILES NOTATION": "O=c1ccn(-c2cccnc2)nc1-c1ccnn1-c1ccnc2ccc(F)cc12", "CLASS NAME": "class B"}
{"SMILES NOTATION": "N#Cc1cccc(-n2nccc2-c2nn(-c3ccncc3)ccc2=O)c1", "CLASS NAME": "class B"}
{"SMILES NOTATION": "Cc1cc(-n2ccc(=O)c(-c3ccnn3-c3cccc4ncccc34)n2)ccn1", "CLASS NAME": "class B"}
{"SMILES NOTATION": "Cc1cc(-n2ccc(=O)c(-c3ccnn3-c3cccc4cnccc34)n2)ccn1", "CLASS NAME": "class A"}
{"SMILES NOTATION": "O=c1ccn(-c2ccncc2)nc1-c1ccnn1-c1cccc2ncccc12", "CLASS NAME": "class A"}
{"SMILES NOTATION": "N#Cc1cc(-n2ccc(=O)c(-c3ccnn3-c3ccc4c(c3)OCCO4)n2)ccn1", "CLASS NAME": "class C"}
{"SMILES NOTATION": "N#Cc1cc(-n2ccc(=O)c(-c3ccnn3-c3cccc(F)c3)n2)ccn1", "CLASS NAME": "class C"}
{"SMILES NOTATION": "O=c1ccn(-c2cncc(Cl)c2)nc1-c1ccnn1-c1ccccc1F", "CLASS NAME": "class B"}
{"SMILES NOTATION": "CS(=O)(=O)c1cncc(-n2ccc(=O)c(-c3ccnn3-c3cccc(F)c3)n2)c1", "CLASS NAME": "class B"}
{"SMILES NOTATION": "O=c1ccn(-c2ccnc(C(F)(F)F)c2)nc1-c1ccnn1-c1cccc(Cl)c1", "CLASS NAME": "class B"}
{"SMILES NOTATION": "O=c1ccn(-c2cccnc2)nc1-c1ccnn1-c1ccccn1", "CLASS NAME": "class C"}
{"SMILES NOTATION": "Cc1cc(-n2ccc(=O)c(-c3ccnn3-c3cccc(F)c3)n2)ccn1", "CLASS NAME": "class C"}
{"SMILES NOTATION": "O=c1ccn(-c2ccncc2)nc1-c1ccnn1-c1cccc2cnccc12", "CLASS NAME": "class A"}
{"SMILES NOTATION": "N#Cc1cncc(-n2ccc(=O)c(-c3ccnn3-c3ccccc3F)n2)c1", "CLASS NAME": "class B"}
{"SMILES NOTATION": "O=c1ccn(-c2ccncc2)nc1-c1ccnn1-c1ccncc1", "CLASS NAME": "class C"}
{"SMILES NOTATION": "O=c1ccn(-c2ccnc(Cl)c2)nc1-c1ccnn1-c1cccc2ncccc12", "CLASS NAME": "class B"}

* * *

# SUBJECT OF TEST: PDE10A2 (Homo sapiens, UniProt Q9Y233)
# Construct: residues serine 449 to aspartate 789; His6 (H6) with Gateway linker and thrombin cleavage site (N, cleaved yes); made in house; host or cells: E. coli BL21(DE3) pLysS
# Sequence (Q9Y233 715-1055): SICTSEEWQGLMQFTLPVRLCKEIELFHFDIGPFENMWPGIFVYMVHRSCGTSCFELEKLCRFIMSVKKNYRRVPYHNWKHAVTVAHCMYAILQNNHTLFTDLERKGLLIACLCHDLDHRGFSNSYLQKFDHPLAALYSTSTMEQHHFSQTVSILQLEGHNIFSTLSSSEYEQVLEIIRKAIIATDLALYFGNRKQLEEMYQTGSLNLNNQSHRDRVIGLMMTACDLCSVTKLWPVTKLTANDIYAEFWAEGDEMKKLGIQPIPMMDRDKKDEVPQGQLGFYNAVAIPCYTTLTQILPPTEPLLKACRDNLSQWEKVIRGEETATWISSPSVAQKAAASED
# PROTOCOL DESCRIPTION: PDE10A2 Scintillation Proximity Assay (SPA), [3H]-cGMP hydrolysis
# Type: biochemical
# TEST CONDITIONS: catalytic domain of human PDE10A2 (S449-D789), 0.25 nM enzyme, 50 nM cGMP + 50 nM [3H]-cGMP, 30 minutes at room temperature; read-out: PDE10A2 inhibition IC50
ENDPOINT NAME: IC50 (nM)

{"COMPOUND": "O=c1ccn(-c2ccncc2)nc1-c1ccnn1-c1ccc(Cl)cc1 [Example 6]", "REPORTED VALUE": 188}
{"COMPOUND": "O=c1ccn(-c2ccc3ncccc3c2)nc1-c1ccnn1-c1ccccc1F [Example 102]", "REPORTED VALUE": 20}
{"COMPOUND": "O=c1ccn(-c2ccnc(Cl)c2)nc1-c1ccnn1-c1ccccc1F [Example 63]", "REPORTED VALUE": 78}
{"COMPOUND": "O=c1ccn(-c2ccc3ncccc3c2)nc1-c1ccnn1-c1cccc(Cl)c1 [Example 103]", "REPORTED VALUE": 7}
{"COMPOUND": "O=c1ccn(-c2cncc(Cl)c2)nc1-c1ccnn1-c1ccnc2cc(Cl)ccc12 [Example 70]", "REPORTED VALUE": 253}
{"COMPOUND": "O=c1ccn(-c2ccnc(Cl)c2)nc1-c1ccnn1-c1cccc(Cl)c1 [Example 56]", "REPORTED VALUE": 50}
{"COMPOUND": "O=c1ccn(-c2ccnc(Cl)c2)nc1-c1ccnn1-c1ccnc2ccc(F)cc12 [Example 55]", "REPORTED VALUE": 122}
{"COMPOUND": "CN(C)S(=O)(=O)c1cccc(-n2nccc2-c2nn(-c3ccncc3)ccc2=O)c1 [Example 28]", "REPORTED VALUE": 3230}
{"COMPOUND": "O=c1ccn(-c2cncc(Cl)c2)nc1-c1ccnn1-c1ccnc2ccc(F)cc12 [Example 52]", "REPORTED VALUE": 177}
{"COMPOUND": "O=c1ccn(-c2ccncc2)nc1-c1ccnn1-c1ccc2c(c1)OCCO2 [Example 15]", "REPORTED VALUE": 80}
{"COMPOUND": "O=c1ccn(-c2cncc(OC(F)F)c2)nc1-c1ccnn1-c1ccccc1F [Example 74]", "REPORTED VALUE": 27}
{"COMPOUND": "O=c1ccn(-c2cncc(C(F)(F)F)c2)nc1-c1ccnn1-c1ccnc2ccccc12 [Example 71]", "REPORTED VALUE": 56}
{"COMPOUND": "O=c1ccn(-c2ccncc2)nc1-c1ccnn1-c1cccc(Cl)c1 [Example 18]", "REPORTED VALUE": 140}
{"COMPOUND": "O=c1ccn(-c2ccncc2)nc1-c1ccnn1-c1ccc(F)cc1 [Example 7]", "REPORTED VALUE": 183}
{"COMPOUND": "O=c1ccn(-c2cncc3ccccc23)nc1-c1ccnn1-c1cccc(Cl)c1 [Example 66]", "REPORTED VALUE": 100}
{"COMPOUND": "NS(=O)(=O)c1ccc(-n2nccc2-c2nn(-c3ccncc3)ccc2=O)cc1 [Example 8]", "REPORTED VALUE": 6330}
{"COMPOUND": "O=c1ccn(-c2ccncc2)nc1-c1ccnn1-c1ccnc2ccc(Cl)cc12 [Example 72]", "REPORTED VALUE": 78}
{"COMPOUND": "O=c1ccn(-c2cncc(C(F)(F)F)c2)nc1-c1ccnn1-c1cccc(Cl)c1 [Example 67]", "REPORTED VALUE": 56}

* * *

# SUBJECT OF TEST: PDE10A2 (Homo sapiens)
# Construct: residues serine 449 to aspartate 789; His6 (H6) with Gateway linker and thrombin cleavage site (N, cleaved yes); made in house; host or cells: E. coli BL21(DE3) pLysS
# PROTOCOL DESCRIPTION: PDE10A2 Scintillation Proximity Assay (SPA), [3H]-cGMP hydrolysis
# Assay type: biochemical
# TEST CONDITIONS: catalytic domain of human PDE10A2 (S449-D789), 0.25 nM enzyme, 50 nM cGMP + 50 nM [3H]-cGMP, 30 minutes at room temperature; read-out: PDE10A2 inhibition IC50
pIC50: −log10 of the molar value.
Assign 1 whenever pIC50 does not fall below 7; assign -1 whenever it does.

{"COMPOUND": "O=c1ccn(-c2cncc(C(F)(F)F)c2)nc1-c1ccnn1-c1ccccc1F [Example 68]", "SUBJECT OF TEST": "PDE10A2 (Homo sapiens)", "CLASS NAME": -1}
{"COMPOUND": "O=c1ccn(-c2cccnc2)nc1-c1ccnn1-c1cccc2cnccc12 [Example 86]", "SUBJECT OF TEST": "PDE10A2 (Homo sapiens)", "CLASS NAME": 1}
{"COMPOUND": "O=c1ccn(-c2ccncc2)nc1-c1ccnn1-c1cccc(Br)c1 [Example 97]", "SUBJECT OF TEST": "PDE10A2 (Homo sapiens)", "CLASS NAME": 1}

* * *

# SUBJECT OF TEST: PDE10A2 (Homo sapiens, UniProt Q9Y233)
# Construct: residues serine 449 to aspartate 789; His6 (H6) with Gateway linker and thrombin cleavage site (N, cleaved yes)
# PROTOCOL DESCRIPTION: PDE10A2 Scintillation Proximity Assay (SPA), [3H]-cGMP hydrolysis
# TEST CONDITIONS: catalytic domain of human PDE10A2 (S449-D789), 0.25 nM enzyme, 50 nM cGMP + 50 nM [3H]-cGMP, 30 minutes at room temperature; read-out: PDE10A2 inhibition IC50
pIC50: −log10 of the molar value.
Assign met whenever pIC50 does not fall below 7; assign not met whenever it does.

{"COMPOUND": "O=c1ccn(-c2ccnc(Cl)c2)nc1-c1ccnn1-c1cccc2ccccc12 [Example 13]", "CLASS NAME": "met"}
{"COMPOUND": "Cc1cc(-n2ccc(=O)c(-c3ccnn3-c3ccnc4ccccc34)n2)ccn1 [Example 79]", "CLASS NAME": "met"}
{"COMPOUND": "O=c1ccn(-c2ccncc2)nc1-c1ccnn1-c1cccc(Cl)n1 [Example 1]", "CLASS NAME": "not met"}
{"COMPOUND": "O=c1ccn(-c2ccnc(Cl)c2)nc1-c1ccnn1-c1ccnc2cc(Cl)ccc12 [Example 69]", "CLASS NAME": "met"}
{"COMPOUND": "O=c1ccn(-c2ccncc2)nc1-c1ccnn1-c1ccnc2cc(Cl)ccc12 [Example 91]", "CLASS NAME": "met"}
{"COMPOUND": "O=C(O)c1cccc(-n2nccc2-c2nn(-c3ccncc3)ccc2=O)c1 [Example 5]", "CLASS NAME": "not met"}
